max response listing for selected molecules.
tested system: Peroxisome proliferator-activated receptor alpha (Homo sapiens)
assay protocol: qHTS assay for small molecule agonists of the peroxisome proliferator-activated receptor alpha (PPARalpha) signaling pathway (AID 651778); further: % of control where 0% means no effect
reported conditions: PathHunter PPARalpha complementation, chemiluminescence, 6 h; active compounds read high
property: max response (%)

molecule	measurement units	observed
CCCCCCCCCCCCCCO	%	6.84
C=C[Si](C)(C)O[Si](C)(C)C=C	%	-1.71
C=CC(=O)OCC[N+](C)(C)C	%	-0.129
Cc1ccc2c(c1)C(=O)OC2=O	%	-2.31
Fc1ccc(Br)cc1	%	-2.75
CC[C@H](C)C1O[C@]2(C=C[C@@H]1C)C[C@@H]1C[C@@H](C/C=C(\C)[C@@H](O[C@H]3C[C@H](OC)[C@@H](O[C@H]4C[C@H](OC)[C@H](NC(C)=O)[C@H](C)O4)[C@H](C)O3)[C@@H](C)/C=C/C=C3\CO[C@@H]4[C@H](O)C(C)=C[C@@H](C(=O)O1)[C@]34O)O2 (stereo partly specified)	%	6.61
Cc1ccc(Cl)cc1Cl	%	-0.243
CC(=O)Nc1ccc(N=Nc2cc(C)ccc2O)cc1	%	-3.57
CCCCCC1CCC(=O)O1 (stereo unspecified)	%	-1.42
CC(=O)OC1CCC(C(C)(C)C)CC1 (stereo unspecified)	%	-0.283
CCCCCCCCCCCCCc1ccccc1	%	-0.643
Cn1c(=O)[nH]c(=O)n(C2CCC(O)CC2)c1=O (stereo unspecified)	%	-2.74
CCCCCCCC[Si](OCC)(OCC)OCC	%	0.0712
S=C([S-])NCCNC(=S)[S-].S=C([S-])NCCNC(=S)[S-].[Mn+2].[Zn+2]	%	-4.1
CCCCCCCOC(=O)c1ccccc1C(=O)OCCCCCCC	%	0.0123
c1cc(-c2ccncc2)ccn1	%	0.638
CC(C)c1ccc(C(C)C)cc1	%	-2.48
CCOCCOCCOCC	%	-2.34
CCCC/C=C\CCCCCCCCO	%	2.88
CNc1nc(=O)n(C2CCC(O)CC2)c(=O)n1C (stereo unspecified)	%	-1.33
CCCCC(CC)C(=O)OCCOCCOCCOC(=O)C(CC)CCCC (stereo unspecified)	%	0.387
C[Si]1(C)N[Si](C)(C)N[Si](C)(C)N1	%	-0.733
C=CC(=O)OCCOCC(CC)(COCCOC(=O)C=C)COCCOC(=O)C=C	%	-0.796
Cc1ccc(C(=O)c2ccccc2)cc1	%	-3.56
CCCCCCc1ccc(N)cc1	%	0.597
CCCC/C=C\CCCCCCCCCC=O	%	7.85
OCCOCCOCCOCCO	%	-1.11
CO[Si](CCCNCCN)(OC)OC	%	0.748
COC(=O)CSc1cc(N=c2sc(=O)n3n2CCCC3)c(F)cc1Cl	%	0.865
CCCCCCCCCCCCCO	%	1.19
CCC(=O)C1C(=O)CC(C(=O)O)CC1=O (stereo unspecified)	%	1.2
CCC(C)OC(=O)N1CCCCC1CCO (stereo unspecified)	%	-1.06
CC(C)CC(C)(O)C#CC(C)(O)CC(C)C (stereo unspecified)	%	-1.54
Oc1ccc(C(c2ccc(O)cc2)C(Cl)(Cl)Cl)cc1	%	-1.42
CCOC(=O)CC(O)(CC(=O)OCC)C(=O)OCC	%	0.853
CN(C)CCOCCN(C)C	%	-0.21
CCC(C)(C)C1CCC(O)CC1 (stereo unspecified)	%	-0.406
O=C(O)c1cc2ccccc2cc1O	%	7.01
O=c1[nH]sc2ccccc12	%	-8.62
COC(=O)c1c(Cl)nn(C)c1S(=O)(=O)NC(=O)Nc1nc(OC)cc(OC)n1	%	0.0687
c1ccc2cc3ccccc3cc2c1	%	-0.274
CCCC/C=C/CCCCO	%	-1.7
OCC(CO)(CO)COCC(CO)(CO)CO	%	0.242
Cc1ccc(N=Nc2c(O)ccc3ccccc23)c(C)c1	%	0.784
O=[N+]([O-])c1ccc2c(c1)Cc1ccccc1-2	%	-0.719
CC(=O)OC(C)(C)C1CC=C(C)CC1 (stereo unspecified)	%	-5.04
CN(C)Cc1cc(CN(C)C)c(O)c(CN(C)C)c1	%	-1.39
CC(C)c1cccc(C(C)C)c1	%	-1.99
O=C=NC1CCC(CC2CCC(N=C=O)CC2)CC1 (stereo unspecified)	%	-2.73
CCNc1nc(NC(C)CC)nc(OC)n1 (stereo unspecified)	%	5.06
N#CSCSc1nc2ccccc2s1	%	-9.14
C[Si](C)(C)N[Si](C)(C)C	%	-0.0059
CC(=O)c1c(C)c([N+](=O)[O-])c(C(C)(C)C)c([N+](=O)[O-])c1C	%	8.73
COC(=O)c1cccc(C(=O)OC)c1	%	0.364
CCCCCCOCCOCCO	%	0.465
CN(C)C(=O)Nc1ccccc1	%	-2.12

Taken from PubChem BioAssay (NCATS).
